test system: SNB-75 CNS; test: NCI-60 one-dose screen, 48 h (100 = growth as untreated, 0 = no growth, -100 = all killed); details: 10 µM unless noted
This is part of a sample that, as a whole, favours compounds with a hit. Of some 83,000 tested, about 20% had one in any assay.
Decision: growth beneath 70% gives TRUE; growth meeting or exceeding 70% gives FALSE.

| CHEM_SMILES | TARGET_ENTITY | QUALITATIVE_LABEL |
| --- | --- | --- |
| Cc1ccc(CNc2c3ccccc3nc3ccccc23)cc1 | SNB-75 CNS | TRUE |

Record CC(=O)c1ccc(Nc2nccc(-c3ccc4ccccc4c3)n2)cc1 : is its growth strictly below 70%? FALSE

Record COc1cccc(Nc2ncnc3cc(NC(=O)CCl)ccc23)c1 : is its growth strictly below 70%? TRUE

Record C=C(C)[C@@H]1CCC[C@]2(C(=O)N3CCN(C)CC3)CC[C@]3(C)[C@@H](CC[C@@H]4[C@@]5(C)CC/C(=N\NC(=O)c6ccncc6)C(C)(C)[C@@H]5CC[C@]43C)[C@@H]12 : is its growth strictly below 70%? FALSE

Record C[n+]1ccc(CCc2c[nH]c3ccccc23)cc1 : is its growth strictly below 70%? FALSE
